# Test system: CYP3A4/5
# assay procedure: Cytochrome P450 inhibition, human liver microsomes
# Assay type: in vitro ADME
# run parameters: probe testosterone (6β-hydroxylation), testosterone, without NADPH preincubation, read-out: Time-dependent inhibition IC50

{"chem smiles": "Cc1[nH]c2nc(N)nc(C)c2c1-c1ccc(C#N)c2c1OCO2", "IC50 at 30 min": "8 µM"}

* * *

# Tested on: CYP3A4/5
# assay procedure: Cytochrome P450 inhibition, human liver microsomes
# Assay type: in vitro ADME
# run parameters: probe midazolam (1'-hydroxylation), midazolam, without NADPH preincubation, read-out: Time-dependent inhibition IC50

{"chem smiles": "Cc1[nH]c2nc(N)nc(C)c2c1-c1ccc(C#N)c2c1OCO2", "IC50 at 30 min": "> 20 µM"}

* * *

# assay procedure: In vivo pharmacokinetics
# Parameters: species or system male Sprague Dawley rats
# run parameters: male, Sprague Dawley, rat, plasma, iv, 3 mg/kg, Rat; read-out: Measured in vivo CLplasma

{"chem smiles": "Cc1[nH]c2nc(N)nc(C)c2c1-c1ccc(C#N)c2c1OCO2", "clearance / mL/min/kg": 2.5}

* * *

# assay procedure: Solubility in biorelevant buffers
# Format: physicochemical
# run parameters: FaSSIF-V2, pH 6.5, fassif, pH 6.5; read-out: Solubility FaSSIF
measurement kind: solubility (µg/mL)

{"compound": "Cc1[nH]c2nc(N)nc(C)c2c1-c1ccc(C#N)c2c1OCO2 [DNDI-6174]", "measurement kind": "solubility", "meas value": 11}

* * *

# test target: CYP1A2 (Homo sapiens, UniProt P05177)
# Construct: incubation of isoform-specific substrates with human liver microsomes; from tissue; host or cells: human liver microsomes
# Sequence (P05177 whole entry, canonical isoform): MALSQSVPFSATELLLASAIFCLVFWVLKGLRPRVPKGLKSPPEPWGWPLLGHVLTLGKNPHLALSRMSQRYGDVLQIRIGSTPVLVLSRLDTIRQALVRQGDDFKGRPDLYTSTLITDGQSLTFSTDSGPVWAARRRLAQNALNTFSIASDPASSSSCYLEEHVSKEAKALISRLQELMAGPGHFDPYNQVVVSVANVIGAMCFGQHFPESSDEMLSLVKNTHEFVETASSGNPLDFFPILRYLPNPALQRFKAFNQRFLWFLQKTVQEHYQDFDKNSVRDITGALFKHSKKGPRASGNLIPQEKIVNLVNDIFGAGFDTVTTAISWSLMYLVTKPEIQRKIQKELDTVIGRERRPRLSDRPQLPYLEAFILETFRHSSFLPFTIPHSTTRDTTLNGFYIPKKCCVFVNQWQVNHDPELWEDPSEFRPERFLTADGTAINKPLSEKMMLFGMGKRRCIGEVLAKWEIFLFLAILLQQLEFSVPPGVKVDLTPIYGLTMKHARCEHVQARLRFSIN
# assay procedure: Cytochrome P450 inhibition, human liver microsomes
# Format: in vitro ADME
# run parameters: CYP1A2; read-out: Direct inhibition IC50
pIC50: −log10 of the molar value.

{"chem smiles": "Cc1[nH]c2nc(N)nc(C)c2c1-c1ccc(C#N)c2c1OCO2", "pIC50": 5.29}

* * *

# assay procedure: Compartmental PK modelling and repeat-dose simulation
# Set-up: species or system mice
# run parameters: mouse, plasma, po, 12.7 mg/kg, Mice, 12.7 mg/kg, fitted; read-out: Cmax

{"molecule": "Cc1[nH]c2nc(N)nc(C)c2c1-c1ccc(C#N)c2c1OCO2 [DNDI-6174]", "unit annotation": "ng/mL", "Cmax": 5100}

* * *

# test target: OATP1B3 (Homo sapiens)
# Sequence (Q9NPD5 1-702): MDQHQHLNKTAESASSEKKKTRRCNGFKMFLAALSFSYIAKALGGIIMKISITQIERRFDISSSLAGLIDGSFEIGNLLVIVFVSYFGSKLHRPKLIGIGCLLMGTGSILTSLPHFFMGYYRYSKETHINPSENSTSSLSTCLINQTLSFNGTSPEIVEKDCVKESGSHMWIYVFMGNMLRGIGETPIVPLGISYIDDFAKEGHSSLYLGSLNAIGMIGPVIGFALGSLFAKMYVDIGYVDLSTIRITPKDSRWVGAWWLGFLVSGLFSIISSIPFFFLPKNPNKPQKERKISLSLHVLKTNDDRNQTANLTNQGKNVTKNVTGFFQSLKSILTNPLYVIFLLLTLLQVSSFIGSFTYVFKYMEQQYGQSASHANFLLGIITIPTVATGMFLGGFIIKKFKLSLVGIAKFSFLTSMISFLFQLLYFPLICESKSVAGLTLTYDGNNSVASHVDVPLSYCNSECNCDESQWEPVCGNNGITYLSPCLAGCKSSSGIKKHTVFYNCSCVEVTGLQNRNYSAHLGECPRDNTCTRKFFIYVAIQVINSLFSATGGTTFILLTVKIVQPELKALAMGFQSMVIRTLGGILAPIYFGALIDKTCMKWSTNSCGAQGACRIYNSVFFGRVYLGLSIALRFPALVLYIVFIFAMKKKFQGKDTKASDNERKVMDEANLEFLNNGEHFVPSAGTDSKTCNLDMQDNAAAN
measurement kind: IC50 (µM)

{"compound": "Cc1[nH]c2nc(N)nc(C)c2c1-c1ccc(C#N)c2c1OCO2 [DNDI-6174]", "meas value": 16}

* * *

# assay procedure: In vivo pharmacokinetics
# Design: species or system male beagle dogs
# run parameters: male, beagle, plasma; Dog, oral 5.0 mg/kg
measurement kind: Cmax

{"chem smiles": "Cc1[nH]c2nc(N)nc(C)c2c1-c1ccc(C#N)c2c1OCO2", "meas value": "2020 ng/mL"}

* * *

# assay procedure: Compartmental PK modelling and repeat-dose simulation
# Parameters: species or system mice
# run parameters: mouse, plasma, po; Mice, 25 mg/kg, fitted
measurement kind: AUC(0-inf) (ng·h/mL)

{"compound": "Cc1[nH]c2nc(N)nc(C)c2c1-c1ccc(C#N)c2c1OCO2 [DNDI-6174]", "measurement kind": "AUC(0-inf)", "meas value": 65700}

* * *

# assay procedure: Compartmental PK modelling and repeat-dose simulation
# Parameters: species or system mice
# run parameters: mouse, plasma, po, 12.5 mg/kg, mice, 12.5 mg/kg qd, 5 days, simulated; read-out: Cum AUC

{"chem smiles": "Cc1[nH]c2nc(N)nc(C)c2c1-c1ccc(C#N)c2c1OCO2", "AUC at 5 days": "205 µg·h/mL"}

* * *

# assay procedure: Compartmental PK modelling and repeat-dose simulation
# Design: species or system hamsters
# run parameters: hamster, plasma, po, 12.5 mg/kg, hamsters, 12.5 mg/kg qd, 5 days, simulated; read-out: Cum AUC

{"chem smiles": "Cc1[nH]c2nc(N)nc(C)c2c1-c1ccc(C#N)c2c1OCO2", "AUC [µg·h/mL]": 119}

* * *

# test target: CYP1A2 (Homo sapiens)
# Construct: incubation of isoform-specific substrates with human liver microsomes; from tissue; host or cells: human liver microsomes
# assay procedure: Cytochrome P450 inhibition, human liver microsomes
# Type: in vitro ADME
# run parameters: with NADPH preincubation; read-out: Time-dependent inhibition IC50

{"chem smiles": "Cc1[nH]c2nc(N)nc(C)c2c1-c1ccc(C#N)c2c1OCO2", "IC50": "1000 nM"}

* * *

# assay procedure: In vitro cytotoxicity assay
# Type: cell-based
# run parameters: human, HFF human foreskin fibroblasts

{"compound": "Cc1[nH]c2nc(N)nc(C)c2c1-c1ccc(C#N)c2c1OCO2 [DNDI-6174]", "CC50": "> 64 µM"}

* * *

# assay procedure: Binding to liver microsomes
# Assay type: in vitro ADME
# run parameters: pH 7.4; human liver microsomes 1 mg/mL; read-out: Microsome fraction unbound

{"chem smiles": "Cc1[nH]c2nc(N)nc(C)c2c1-c1ccc(C#N)c2c1OCO2", "fraction unbound at 6 h, 0.5 µM": 0.51}

* * *

# Tested on: L. donovani promastigote cultures
# assay procedure: microbe, parasite or virus in culture
# Format: cell-based
# run parameters: Leishmania donovani, read-out: EC50 values, DDD01716002 Res 1 (S207P)
pEC50: −log10 of the molar value.
measurement kind: pEC50

{"chem smiles": "Cc1[nH]c2nc(N)nc(C)c2c1-c1ccc(C#N)c2c1OCO2", "meas value": 6.11}

* * *

# assay procedure: Compartmental PK modelling and repeat-dose simulation
# Design: species or system mice
# run parameters: mouse, plasma, po, 12.5 mg/kg, mice, 12.5 mg/kg qd, 5 days, simulated; read-out: AUC24 ss

{"chem smiles": "Cc1[nH]c2nc(N)nc(C)c2c1-c1ccc(C#N)c2c1OCO2", "unit annotation": "ng·h/mL", "AUC": 41000}

* * *

# assay procedure: pKa and Log D7.4 determination
# Format: physicochemical
# run parameters: read-out: pKa (measured)

{"chem smiles": "Cc1[nH]c2nc(N)nc(C)c2c1-c1ccc(C#N)c2c1OCO2", "pKa": 5.6}

* * *

# assay procedure: In vivo pharmacokinetics
# Parameters: species or system male beagle dogs
# run parameters: male, beagle, plasma; Dog, oral 5.0 mg/kg
measurement kind: Tmax (h)

{"chem smiles": "Cc1[nH]c2nc(N)nc(C)c2c1-c1ccc(C#N)c2c1OCO2", "meas value": 4}

* * *

# assay procedure: In vitro metabolism, cryopreserved hepatocytes
# Format: in vitro ADME, rat
# run parameters: rat, cryopreserved hepatocytes
measurement kind: hepatocyte CLint at 0.5 µM (µL/min/1e6 cells)

{"chem smiles": "Cc1[nH]c2nc(N)nc(C)c2c1-c1ccc(C#N)c2c1OCO2", "unit annotation": "µL/min/1e6 cells", "meas value": 5.3}

* * *

# assay procedure: In vivo pharmacokinetics
# Parameters: species or system male beagle dogs
# run parameters: male, beagle, dog, plasma, po, 90 mg/kg, dogs, single oral 90 mg/kg; two individual dogs; read-out: T1/2 (converted)

{"compound": "Cc1[nH]c2nc(N)nc(C)c2c1-c1ccc(C#N)c2c1OCO2 [DNDI-6174]", "half-life": "14.2 h"}

* * *

# assay procedure: In vivo pharmacokinetics
# Set-up: species or system male Sprague Dawley rats
# run parameters: male, Sprague Dawley, plasma; Rat, oral 10 mg/kg
# Experimental: Single dose intravenous (IV) pharmacokinetic (PK) studies in male Sprague Dawley rats and IV and oral PK studies in female BALB/c mice were conducted at Monash University. […] Blood was sampled via a cannula implanted in the carotid artery (also on the day prior to dosing) at pre-determined time points up to 24 h post-dose. Samples were transferred to vials containing heparin as an anticoagulant, gently mixed and centrifuged, and plasma separated for subsequent quantitative analysis using LC-MS. […]

{"chem smiles": "Cc1[nH]c2nc(N)nc(C)c2c1-c1ccc(C#N)c2c1OCO2", "Cmax": "4210 ng/mL"}
